- tested-target: recombinant human acetylcholinesterase, rHsAChE (Homo sapiens, UniProt P22303)
- Sequence (P22303 32-614): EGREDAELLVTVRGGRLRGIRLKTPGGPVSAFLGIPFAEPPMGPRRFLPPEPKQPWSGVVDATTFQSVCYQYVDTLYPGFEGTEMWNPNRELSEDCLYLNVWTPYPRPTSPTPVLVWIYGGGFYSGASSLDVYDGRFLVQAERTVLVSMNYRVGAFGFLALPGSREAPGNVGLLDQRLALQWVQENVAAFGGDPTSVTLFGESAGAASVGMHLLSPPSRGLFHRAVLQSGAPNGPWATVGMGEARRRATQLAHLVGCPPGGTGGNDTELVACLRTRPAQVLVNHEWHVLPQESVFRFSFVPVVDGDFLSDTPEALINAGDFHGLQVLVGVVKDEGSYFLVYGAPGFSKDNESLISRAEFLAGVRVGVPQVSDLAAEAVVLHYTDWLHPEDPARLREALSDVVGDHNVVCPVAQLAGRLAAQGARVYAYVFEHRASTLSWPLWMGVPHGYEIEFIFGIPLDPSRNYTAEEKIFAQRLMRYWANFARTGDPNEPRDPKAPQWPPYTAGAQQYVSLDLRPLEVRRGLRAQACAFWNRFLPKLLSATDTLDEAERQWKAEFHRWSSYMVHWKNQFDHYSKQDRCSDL
- experiment-summary: biochemical
- run-conditions: read-out: qAC50 (IC50), rHsAChE
quantity-name: IC50

* CCOC(=O)N1c2ccc(C(F)(F)F)cc2[C@@H](N(Cc2cc(C(F)(F)F)cc(C(F)(F)F)c2)C(=O)OC)C[C@H]1CC | > 38 µM
* C=CCNc1nc(NCC=C)nc(N2CCN(C(c3ccc(F)cc3)c3ccc(F)cc3)CC2)n1 | > 38 µM
* CCCCCCCCCCCCc1ccc(S(=O)(=O)Nc2nncs2)cc1 | 1.16 µM
* C[C@H](NC(=O)C(C)(C)Oc1ccc(C(F)(F)F)cn1)[C@@H](Cc1ccc(Cl)cc1)c1cccc(C#N)c1 | > 13.5 µM
* Cc1cnc(Nc2ccc(N3CCN(C)CC3)cc2)nc1Nc1cccc(S(=O)(=O)NC(C)(C)C)c1 [TG-101209, reference compound] | 15.4 µM
* CCCCC(=O)O[C@H]1CC[C@H]2[C@@H]3CCc4cc(O)ccc4[C@H]3CC[C@]12C | 29.4 µM
* COc1ccc(C(Cl)=C(c2ccc(OC)cc2)c2ccc(OC)cc2)cc1 | > 38 µM
* CCOc1nc2cccc(C(=O)OCc3oc(=O)oc3C)c2n1Cc1ccc(-c2ccccc2-c2noc(=O)[nH]2)cc1 | > 12 µM
* CCCCCCCCCCCC([NH2+][O-])c1cc(C)ccc1O (stereo not drawn) | 7.8 µM
* C[C@H](Oc1cc(-c2cnn(C3CCNCC3)c2)cnc1N)c1c(Cl)ccc(F)c1Cl | 21.2 µM
* CCCCCCCCCCCCCCCC[N+](C)(C)C | 10.3 µM
* O=C(O)c1ccccc1Nc1ccc(CCc2ccc(Cl)c(Cl)c2)cc1 | 8.55 µM
* CC(C)(O)c1ccccc1CC[C@@H](SCC1(CC(=O)O)CC1)c1cccc(/C=C/c2ccc3ccc(Cl)cc3n2)c1 | > 38 µM
* O=C(Nc1ccc(Cl)cc1)Nc1ccc(Cl)c(Cl)c1 | > 38 µM
* CCCCC/C=C\C/C=C\C/C=C\C/C=C\CCCC(=O)Nc1ccc(O)cc1 | 22.4 µM

----------
- tested-target: recombinant human acetylcholinesterase, rHsAChE (Homo sapiens, UniProt P22303)
- experiment-summary: biochemical
quantity-name: Data Mode (curve class), rHsAChE

* COC(=O)C1=C(C)NC(C)=C(C(=O)OC/C=C/c2ccccc2)C1c1cccc([N+](=O)[O-])c1 (stereo not shown) | inactive
* CCCC[C@@H](CC)COC(=O)/C=C/c1ccc(OC)cc1 | decreasing
* CN(CCCCCCCCCCN(C)C(=O)Oc1cccc([N+](C)(C)C)c1)C(=O)Oc1cccc([N+](C)(C)C)c1 [Demecarium bromide, reference compound] | decreasing
* CCCCC(=O)O[C@H]1CC[C@H]2[C@@H]3CCc4cc(O)ccc4[C@H]3CC[C@]12C | decreasing
* CCCCC/C=C\C/C=C\C/C=C\C/C=C\CCCC(=O)Nc1ccc(O)cc1 | decreasing
* CCC(CC)C(c1ccc(Nc2nc3ccccc3s2)cc1)n1cncn1 (stereo not shown) | inactive
* C[C@]12CC[C@@H]3c4ccc(O)cc4CC[C@H]3[C@@H]1CCC2=O | inactive
* CC(C)n1cnc2c(NCCc3ccc(O)cc3)nc(-c3csc4ccccc34)nc21 | inactive
* CC1(C)CCC(C)(C)c2cc(C#Cc3ccc(C(=O)O)cc3)ccc21 | decreasing
* CC(C)c1onc(-c2c(Cl)cccc2Cl)c1COc1ccc(/C=C/c2cccc(C(=O)O)c2)c(Cl)c1 [GW-4064, reference compound] | decreasing
* O=C(Nc1ccccc1Br)N[C@@H]1CCN(c2ccc(C(F)(F)F)cn2)C1 | inactive
* CCOC(=O)C1=C(C)NC(C)=C(C(=O)OCC)C1c1ccccc1/C=C/C(=O)OC(C)(C)C | inactive
* Cc1cc(Oc2ccc3nc(COc4ccc(CC5SC(=O)NC5=O)cc4)n(C)c3c2)cc(C)c1N (stereo not shown) | inactive
* O=C(O)c1ccccc1Nc1ccc(CCc2ccc(Cl)c(Cl)c2)cc1 | decreasing
* COC(=O)N[C@H](C(=O)N1CC2(CC2)C[C@H]1c1ncc(-c2ccc3c(c2)C(F)(F)c2cc(-c4ccc5nc([C@@H]6[C@H]7CC[C@H](C7)N6C(=O)[C@@H](NC(=O)OC)C(C)C)[nH]c5c4)ccc2-3)[nH]1)C(C)C | inactive
* O=C(Cc1cccc(OC(F)(F)F)c1)Nc1ccc(CCCCc2nnc(NC(=O)Cc3ccccn3)s2)nn1 | inactive
* CCCCCCCCCCCC([NH2+][O-])c1cc(C)ccc1O (stereo not shown) | decreasing
* CC#C[C@@H](CC(=O)O)c1ccc(OCc2cccc(-c3ccc(C(F)(F)F)cc3)c2)cc1 | decreasing
* CSc1cc2c(cc1C(F)(F)F)N(C(=O)Nc1cccnc1)CC2 | inactive
* CC(C)Oc1ccc(-c2nn([C@@H](C)c3oc4ccc(F)cc4c(=O)c3-c3cccc(F)c3)c3ncnc(N)c23)cc1F | inactive
* Cc1cc(C#N)cc(C)c1Oc1nc(Nc2ccc(C#N)cc2)nc(N)c1Br | inactive
* CC(=O)[C@@]12OC(C)(c3ccccc3)O[C@@H]1C[C@H]1[C@@H]3CCC4=CC(=O)CC[C@]4(C)[C@H]3CC[C@@]12C (stereo partly shown) | inactive
